pIC50: −log10 of the molar value.
Record type: pIC50 measurement. Applies to: Epidermal growth factor receptor (Homo sapiens, UniProt P00533)
PROPERTY: pIC50

compound_string=Cc1ncnc(Nc2ccc(OCc3cccc(F)c3)c(Cl)c2)c1/C=C/c1ccc(CNC2CC2)cc1 property=pIC50 test_value=7.01
compound_string=Cc1ncnc(Nc2ccc(OCc3cccc(F)c3)c(Cl)c2)c1C#Cc1ccc(CN2CCCC2)o1 property=pIC50 test_value=7.10
compound_string=Cc1ncnc(Nc2ccc(OCc3cccc(F)c3)c(Cl)c2)c1C#Cc1cccc(CN(C)C)c1 property=pIC50 test_value=7.26
compound_string=Cc1ncnc(Nc2ccc(OCc3cccc(F)c3)c(Cl)c2)c1/C=C/c1ccc(CNC(C)C)cc1 property=pIC50 test_value=7.62
compound_string=Cc1ncnc(Nc2ccc(OCc3cccc(F)c3)c(Cl)c2)c1C#Cc1ccc(CN2CCCC2)cc1 property=pIC50 test_value=8.05

###

- Tested on: BT-474
- ASSAY TEXT: Antiproliferative activity against human BT474 cells after 3 days by methylene blue staining
- Type: functional, cell-based
- TEST PARAMETERS: BT-474, 72 h
pIC50: −log10 of the molar value.
Listing of recorded pIC50 by entry.
PROPERTY: pIC50

compound=Cc1ncnc(Nc2ccc(OCc3cccc(F)c3)c(Cl)c2)c1C#Cc1ccc(CN2CCCC2)s1 test_value=6.39
compound=Cc1ncnc(Nc2ccc(OCc3cccc(F)c3)c(Cl)c2)c1C#Cc1ccc(CN2CCCC2)c(F)c1 test_value=7.30
compound="CS(=O)(=O)CCNCc1ccc(-c2ccc3ncnc(Nc4ccc(OCc5cccc(F)c5)c(Cl)c4)c3c2)o1 [LAPATINIB]" test_value=7.00
compound=Cc1ncnc(Nc2ccc(OCc3cccc(F)c3)c(Cl)c2)c1C#Cc1ccc(CNC(C)C)cc1 test_value=6.77
compound=Cc1ncnc(Nc2ccc(OCc3cccc(F)c3)c(Cl)c2)c1C#Cc1ccc(CN2CCCC2)o1 test_value=6.09
compound=Cc1ncnc(Nc2ccc(OCc3cccc(F)c3)c(Cl)c2)c1/C=C/c1ccc(CNCCS(C)(=O)=O)cc1 test_value=6.19

###

- ASSAY TEXT: Oral bioavailability in rat
- Format: ADME, organism-based
- TEST PARAMETERS: in vivo
PROPERTY: bioavailability (%)

compound_string=Cc1ncnc(Nc2ccc(OCc3cccc(F)c3)c(Cl)c2)c1C#Cc1ccc(CN2CCCC2)c(F)c1 property=bioavailability test_value=35

###

- EXPERIMENTAL TARGET: Aurora kinase A (Homo sapiens, UniProt O14965)
- Sequence (O14965 whole entry): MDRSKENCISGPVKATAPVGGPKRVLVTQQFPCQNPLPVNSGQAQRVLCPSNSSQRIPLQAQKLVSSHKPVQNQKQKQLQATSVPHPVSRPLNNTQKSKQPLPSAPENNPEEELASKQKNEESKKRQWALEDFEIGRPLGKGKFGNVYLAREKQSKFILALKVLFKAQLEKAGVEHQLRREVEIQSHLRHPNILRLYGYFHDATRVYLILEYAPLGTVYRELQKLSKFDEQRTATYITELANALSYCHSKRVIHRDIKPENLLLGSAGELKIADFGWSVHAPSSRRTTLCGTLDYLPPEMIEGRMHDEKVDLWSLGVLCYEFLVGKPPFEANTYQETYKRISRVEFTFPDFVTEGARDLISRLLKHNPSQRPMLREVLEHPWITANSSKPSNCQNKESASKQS
PROPERTY: IC50

compound_string=Cc1ncnc(Nc2ccc(OCc3cccc(F)c3)c(Cl)c2)c1C#Cc1ccc(CN2CCCC2)c(F)c1 test_value="> 100 µM"

###

For reference, IC50 measured on UniProtKB P04626:
PROPERTY: IC50 (nM)

compound_string=Cc1ncnc(Nc2ccc(OCc3cccc(F)c3)c(Cl)c2)c1/C=C/c1ccc(CNC2CC2)cc1 experimental_target="UniProtKB P04626" test_value=86
compound_string=Cc1ncnc(Nc2ccc(OCc3cccc(F)c3)c(Cl)c2)c1C#Cc1ccc(CN2CCCC2)s1 experimental_target="UniProtKB P04626" test_value=180
compound_string=Cc1ncnc(Nc2ccc(OCc3cccc(F)c3)c(Cl)c2)c1/C=C/c1ccc(CNC(C)C)cc1 experimental_target="UniProtKB P04626" test_value=30
compound_string=Cc1ncnc(Nc2ccc(OCc3cccc(F)c3)c(Cl)c2)c1C#Cc1cccc(CN(C)C)c1 experimental_target="UniProtKB P04626" test_value=73
compound_string=Cc1ncnc(Nc2ccc(OCc3cccc(F)c3)c(Cl)c2)c1C#Cc1ccc(CN(C)C)cc1 experimental_target="UniProtKB P04626" test_value=41
compound_string=Cc1ncnc(Nc2ccc(OCc3cccc(F)c3)c(Cl)c2)c1C#Cc1ncc(CN2CCCC2)s1 experimental_target="UniProtKB P04626" test_value=110
compound_string=Cc1ncnc(Nc2ccc(OCc3cccc(F)c3)c(Cl)c2)c1C#Cc1ccccc1 experimental_target="UniProtKB P04626" test_value=750
compound_string=Cc1ncnc(Nc2ccc(OCc3cccc(F)c3)c(Cl)c2)c1C#Cc1ccc(CNC(C)C)cc1 experimental_target="UniProtKB P04626" test_value=18
compound_string=Cc1ncnc(Nc2ccc(OCc3cccc(F)c3)c(Cl)c2)c1C#Cc1ccc(CNCCS(C)(=O)=O)cc1 experimental_target="UniProtKB P04626" test_value=220
compound_string=Cc1ncnc(Nc2ccc(OCc3cccc(F)c3)c(Cl)c2)c1C#Cc1ccc(CN2CCCC2)cc1 experimental_target="UniProtKB P04626" test_value=41
compound_string=Cc1ncnc(Nc2ccc(OCc3cccc(F)c3)c(Cl)c2)c1C#Cc1ccc(CN2CCCC2)o1 experimental_target="UniProtKB P04626" test_value=140
compound_string=Cc1ncnc(Nc2ccc(OCc3cccc(F)c3)c(Cl)c2)c1C#Cc1ccc(CN2CCCC2)c(F)c1 experimental_target="UniProtKB P04626" test_value=62
compound_string=Cc1ncnc(Nc2ccc(OCc3cccc(F)c3)c(Cl)c2)c1C#CCOc1ccc(CNC(C)C)cc1 experimental_target="UniProtKB P04626" test_value=130

###

- ASSAY TEXT: Metabolic stability of the compound in human liver microsomes assessed as compound remaining after 30 mins
- Assay type: ADME, Microsome
- TEST PARAMETERS: read-out: Stability
PROPERTY: remaining at 0.5 h (%)

compound_string=Cc1ncnc(Nc2ccc(OCc3cccc(F)c3)c(Cl)c2)c1C#Cc1ccc(CN2CCCC2)c(F)c1 unit_of_measure=% test_value=24

###

- ASSAY TEXT: Aqueous solubility of the compound at pH 7.4
- Type: physicochemical
PROPERTY: solubility

compound_string=Cc1ncnc(Nc2ccc(OCc3cccc(F)c3)c(Cl)c2)c1C#Cc1ccc(CN2CCCC2)c(F)c1 property=solubility test_value="> 50 µM"

###

- ASSAY TEXT: AUC in po dosed rat
- Type: ADME, organism-based
- TEST PARAMETERS: plasma
PROPERTY: AUC (ng·h/mL)

compound_string=Cc1ncnc(Nc2ccc(OCc3cccc(F)c3)c(Cl)c2)c1C#Cc1ccc(CN2CCCC2)c(F)c1 unit_of_measure=ng·h/mL test_value=361

###

The following compounds each carry a recorded log10 IC50 for UniProt P00533.
PROPERTY: log10 IC50 (log10 of the value in nM)

compound_string=Cc1ncnc(Nc2ccc(OCc3cccc(F)c3)c(Cl)c2)c1C#Cc1ccccc1 test_value=2.81
compound_string=Cc1ncnc(Nc2ccc(OCc3cccc(F)c3)c(Cl)c2)c1C#Cc1ccc(CNCCS(C)(=O)=O)cc1 test_value=1.34
compound_string=Cc1ncnc(Nc2ccc(OCc3cccc(F)c3)c(Cl)c2)c1C#CCOc1ccc(CNC(C)C)cc1 test_value=1.93
compound_string=Cc1ncnc(Nc2ccc(OCc3cccc(F)c3)c(Cl)c2)c1C#Cc1ncc(CN2CCCC2)s1 test_value=1.87
compound_string=Cc1ncnc(Nc2ccc(OCc3cccc(F)c3)c(Cl)c2)c1C#Cc1ccc(CN2CCCC2)s1 test_value=1.48

Cited source: ChEMBL document CHEMBL1933060
